experimental.system: GSPT1 (Homo sapiens, UniProt P15170+Q96SW2)
Construct: host or cells: HEK293 LgBiT cell line
Sequence (P15170 whole entry): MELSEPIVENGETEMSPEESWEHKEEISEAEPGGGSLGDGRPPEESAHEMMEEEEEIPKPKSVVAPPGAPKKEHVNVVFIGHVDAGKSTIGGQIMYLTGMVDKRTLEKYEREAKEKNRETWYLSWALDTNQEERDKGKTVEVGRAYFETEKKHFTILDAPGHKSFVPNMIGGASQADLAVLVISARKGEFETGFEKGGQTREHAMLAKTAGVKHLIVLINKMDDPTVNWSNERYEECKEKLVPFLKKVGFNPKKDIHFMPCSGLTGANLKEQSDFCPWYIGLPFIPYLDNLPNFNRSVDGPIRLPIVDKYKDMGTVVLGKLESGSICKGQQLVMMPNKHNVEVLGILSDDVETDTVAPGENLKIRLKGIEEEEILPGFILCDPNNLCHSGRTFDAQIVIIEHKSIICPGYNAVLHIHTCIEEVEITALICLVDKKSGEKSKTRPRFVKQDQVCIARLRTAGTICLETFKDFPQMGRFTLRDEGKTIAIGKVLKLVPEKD
Sequence (Q96SW2 whole entry): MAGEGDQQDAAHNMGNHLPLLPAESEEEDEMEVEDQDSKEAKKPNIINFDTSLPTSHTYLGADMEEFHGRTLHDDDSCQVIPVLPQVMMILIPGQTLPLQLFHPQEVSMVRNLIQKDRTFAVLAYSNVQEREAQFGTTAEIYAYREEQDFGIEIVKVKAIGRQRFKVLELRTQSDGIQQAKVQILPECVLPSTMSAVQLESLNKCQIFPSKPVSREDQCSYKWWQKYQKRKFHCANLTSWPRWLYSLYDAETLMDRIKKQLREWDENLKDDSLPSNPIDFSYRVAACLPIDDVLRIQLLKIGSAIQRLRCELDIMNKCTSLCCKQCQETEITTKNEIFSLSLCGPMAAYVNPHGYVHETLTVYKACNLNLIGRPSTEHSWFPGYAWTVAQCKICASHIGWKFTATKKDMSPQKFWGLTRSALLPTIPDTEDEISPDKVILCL
Sequence (Q16531 whole entry partner): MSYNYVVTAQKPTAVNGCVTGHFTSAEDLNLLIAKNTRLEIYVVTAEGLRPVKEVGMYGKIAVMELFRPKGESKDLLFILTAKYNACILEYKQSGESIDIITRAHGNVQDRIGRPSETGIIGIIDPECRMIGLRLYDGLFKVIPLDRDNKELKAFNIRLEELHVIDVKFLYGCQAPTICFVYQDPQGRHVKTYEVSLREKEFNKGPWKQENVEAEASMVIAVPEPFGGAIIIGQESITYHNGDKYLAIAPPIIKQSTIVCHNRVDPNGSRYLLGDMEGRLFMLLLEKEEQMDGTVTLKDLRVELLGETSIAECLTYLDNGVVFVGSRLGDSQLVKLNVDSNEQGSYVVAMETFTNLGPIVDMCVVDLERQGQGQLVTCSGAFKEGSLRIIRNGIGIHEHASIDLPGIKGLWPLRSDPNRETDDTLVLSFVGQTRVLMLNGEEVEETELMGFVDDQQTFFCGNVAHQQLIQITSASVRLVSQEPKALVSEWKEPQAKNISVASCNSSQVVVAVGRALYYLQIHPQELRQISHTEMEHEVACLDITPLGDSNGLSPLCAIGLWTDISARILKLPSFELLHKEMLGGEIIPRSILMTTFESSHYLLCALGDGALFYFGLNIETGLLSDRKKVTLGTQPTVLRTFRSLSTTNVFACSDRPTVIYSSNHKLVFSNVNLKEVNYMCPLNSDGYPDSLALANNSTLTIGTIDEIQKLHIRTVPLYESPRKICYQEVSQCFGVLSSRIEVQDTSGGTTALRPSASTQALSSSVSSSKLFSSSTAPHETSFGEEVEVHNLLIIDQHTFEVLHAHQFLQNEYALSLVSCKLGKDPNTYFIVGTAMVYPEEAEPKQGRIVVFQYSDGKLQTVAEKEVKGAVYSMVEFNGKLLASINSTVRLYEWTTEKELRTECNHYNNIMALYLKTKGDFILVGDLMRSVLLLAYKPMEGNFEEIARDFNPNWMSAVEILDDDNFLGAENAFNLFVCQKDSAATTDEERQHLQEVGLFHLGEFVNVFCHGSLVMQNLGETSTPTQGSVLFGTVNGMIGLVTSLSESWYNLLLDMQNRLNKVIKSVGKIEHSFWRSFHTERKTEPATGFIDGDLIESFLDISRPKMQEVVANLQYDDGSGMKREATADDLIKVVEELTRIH
protocol.notes: GSPT1 HiBit degradation assay
Assay type: cell-based
cond: Table 3A; HEK293 LgBiT cells expressing GSPT1_HiBiT, luminescence after 6 hours
measured.parameter: DC50

compound	DC50
Cc1c(NC(=O)c2ccc(C3CC3)cc2F)cc(F)cc1-c1ncnc(N)c1OCCN(C)C(=O)/C=C/CN(C)CCOCCOCCOCCOCCOCCOCCOCCOCCOCCOCCCCCCCCc1cc(Cl)cc(NC(=O)NCc2ccc3c(c2)CN(C2CCC(=O)NC2=O)C3=O)c1 (centres unmarked)	< 250 nM

Req: Query: DC50; subject: C=CC(=O)NC1CN(c2nc(Nc3cn(CCOCCOCCOCCOCCOCCCCCc4cc(Cl)cc(NC(=O)NCc5ccc6c(c5)CN(C5CCC(=O)NC5=O)C6=O)c4)nc3OC)c3ncn(C)c3n2)C[C@H]1F (some centres unmarked)
Resp: < 250 nM
